Reported CC50 values are given for each entry in this list.
# protocol-details: Cytotoxicity against african green monkey Vero cells assessed as reduction in cell viability after 24 to 36 hrs by MTS-based CPE reduction assay
# measurement-context: chlorocebus sabaeus

GET /values?readout=CC50&item= CCc1ccc(C(=O)NNc2c(C)cccc2Cl)cc1
81.7 µM

###

Reported selectivity ratio values follow for various compounds
# protocol-details: Selectivity index, ratio of CC50 for human RD cells to EC50 for Enterovirus 71
# Type: toxicity, cell-based
# measurement-context: read-out: Ratio CC50/EC50

Answered examples (8):
[[record]]
sample_smiles = "CCOc1ccc(C(=O)NNc2c(C)cccc2Cl)cc1"
assay_readout = "selectivity ratio"
recorded_result = "> 319"

[[record]]
sample_smiles = "CN(C)c1ccc(C(=O)NNc2c(F)cccc2F)cc1"
assay_readout = "selectivity ratio"
recorded_result = "> 11.7"

[[record]]
sample_smiles = "CCCc1ccc(C(=O)NNc2c(Br)cccc2Br)cc1"
assay_readout = "selectivity ratio"
recorded_result = "> 42"

[[record]]
sample_smiles = "COc1ccc(C(=O)NNc2c(C)cccc2C)cc1"
assay_readout = "selectivity ratio"
recorded_result = "> 10.2"

[[record]]
sample_smiles = "CCCc1ccc(C(=O)NNc2c(C)cccc2C)cc1"
assay_readout = "selectivity ratio"
recorded_result = "> 107"

[[record]]
sample_smiles = "CCc1ccc(C(=O)NNc2c(C)cccc2C)cc1"
assay_readout = "selectivity ratio"
recorded_result = 59.7

[[record]]
sample_smiles = "Cc1ccc(C(=O)NNc2c(Br)cccc2Br)cc1"
assay_readout = "selectivity ratio"
recorded_result = 6.6

[[record]]
sample_smiles = "Cc1cccc(C)c1NNC(=O)c1ccc(N(C)C)cc1"
assay_readout = "selectivity ratio"
recorded_result = "> 411"


Form field: reported selectivity ratio of CCCc1ccc(C(=O)NNc2c(Cl)cccc2Cl)cc1
> 562

Looking for the measured selectivity ratio of CSc1ccc(C(=O)NNc2c(C)cccc2Cl)cc1 , can you help?
8.7

Look up selectivity ratio for this compound: CC(C)S(=O)(=O)n1c(N)nc2ccc(/C(=N/O)c3ccccc3)cc21
> 950

# query: selectivity ratio of entry CN(C)c1ccc(C(=O)NNc2c(Br)cccc2Br)cc1
> 2930

Please look up its selectivity ratio: O=C(NNc1c(Br)cccc1Br)c1ccccc1
> 89.1

Requested read-out: selectivity ratio. Entry: Cc1ccc(C(=O)NNc2c(C)cccc2Cl)cc1
> 10.8

###

# System: Coxsackievirus B1
# protocol-details: Antiviral activity against Human coxsackievirus B1 infected in african green monkey Vero cells after 24 to 36 hrs by MTS-based CPE reduction assay
# Format: functional, organism-based
# measurement-context: Enterovirus B
Sorting guide: entries reporting EC50 beneath 2 nM go in the true pile, the rest go in the false pile.

Given Cc1cccc(C)c1NNC(=O)c1ccc(C(C)(C)C)cc1 , is recorded EC50 strictly lower than 2 nM?
true

Consider the compound CN(C)c1ccc(C(=O)NNc2c(Cl)cccc2Cl)cc1 . Is its EC50 strictly less than 2 nM?
true

Strictly below 2 nM: is that where EC50 of CC(C)(C)c1ccc(C(=O)NNc2c(Br)cccc2Br)cc1 sits?
false

Quick check: EC50 of CC(C)S(=O)(=O)n1c(N)nc2ccc(/C(=N/O)c3ccccc3)cc21 under 2 nM?
false

hey, is EC50 for CN(C)c1ccc(C(=O)NNc2c(Br)cccc2Br)cc1 lower than 2 nM or not?
false
